test: qHTS RealTime-Glo MT Cell Viability Assay in HEK293 cells - 8 hour (AID 1224887); conditions: RealTime-Glo luminescence; series mostly up to 76.8 µM; note: top concentration of the series differs between compounds; nearly all actives have a fitted effect of over 50% in size
Inconclusive results are not listed. Calls of active or inactive are those of the source. Calls come from the whole dose curve; as a rule, active = well fitted cell-killing curve with a large enough effect in the repeat runs; inconclusive = weak or mixed curves, or effect the other way; inactive = flat fitted curve, though single readings scatter.

- Molecule: "Cc1ccccc1OCC(=O)O"
  activity change, negative = cytotoxicity: "inactive"
- Molecule: "NNC(=O)OCc1ccccc1"
  activity change, negative = cytotoxicity: "inactive"
- Molecule: "CC(O)CCCCn1c(=O)c2c(ncn2C)n(C)c1=O (centres undefined)"
  activity change, negative = cytotoxicity: "inactive"
- Molecule: "CCCc1ccc(O)c(OC)c1"
  activity change, negative = cytotoxicity: "inactive"
- Molecule: "CC(=O)OCC(=O)[C@@]1(O)CC[C@H]2[C@@H]3CCC4=CC(=O)C=C[C@]4(C)[C@H]3[C@@H](O)C[C@@]21C"
  activity change, negative = cytotoxicity: "inactive"
- Molecule: "Cc1ccc(OC(=O)CC(C)C)cc1"
  activity change, negative = cytotoxicity: "inactive"
- Molecule: "Cc1ccc(NC(N)=O)cc1"
  activity change, negative = cytotoxicity: "inactive"
- Molecule: "CCCCN=C(N)N=C(N)N"
  activity change, negative = cytotoxicity: "inactive"
- Molecule: "NCC1CCC(C(=O)Oc2ccc(CCC(=O)O)cc2)CC1 (centres undefined)"
  activity change, negative = cytotoxicity: "inactive"
- Molecule: "Clc1cc(Cl)c(Cl)c(Cl)c1Cl"
  activity change, negative = cytotoxicity: "inactive"
- Molecule: "CC1(C)C(=O)C(C)(C)C1=O"
  activity change, negative = cytotoxicity: "inactive"
- Molecule: "C=COCCCCO"
  activity change, negative = cytotoxicity: "inactive"
- Molecule: "Cc1cc(N)no1"
  activity change, negative = cytotoxicity: "inactive"
- Molecule: "Nc1cc(S(=O)(=O)O)ccc1O"
  activity change, negative = cytotoxicity: "inactive"

----------
molecular target: Cytochrome P450 3A4 (Homo sapiens); assay: Cytochrome P450 Family 3 Subfamily A Member 4 (CYP3A4) small molecule antagonists: luciferase reporter qHTS assay (AID 1671201); settings: P450-Glo CYP3A4 enzyme, luciferin luminescence, 1 h; series mostly up to 115 µM; note: nearly all actives have a fitted effect of over 50% in size
Inconclusive results are not listed. Calls of active or inactive are those of the source. Calls follow the shape of the dose curve; as a rule, active = well fitted inhibition curve with a large enough effect in the repeat runs; inconclusive = weak or mixed curves; inactive = no such curve, though single readings can be large or run the other way.
Outcomes: T for active, F for inactive

- Compound: "CC(=O)Oc1ccc(C(C)=O)cc1"
  Label class: "F"
- Compound: "CCCCCC(=O)CC"
  Label class: "F"
- Compound: "C=CC(=O)CC"
  Label class: "F"
- Compound: "CC(O)C(CO)C(C)O (stereo not given)"
  Label class: "F"
- Compound: "N#Cc1cc(NC(=O)C(=O)O)c(Cl)c(NC(=O)C(=O)O)c1"
  Label class: "F"
- Compound: "COc1cc(OC)cc(OC)c1"
  Label class: "F"
- Compound: "Cc1nnc(C(=O)NC(C)(C)c2nc(C(=O)NCc3ccc(F)cc3)c(O)c(=O)n2C)o1"
  Label class: "F"
- Compound: "CC(C)(O)c1ccc(C(C)(C)O)cc1"
  Label class: "F"
- Compound: "NNC(=O)CCCCC(=O)NN"
  Label class: "T"
- Compound: "CCOC(=O)CC(C(C)=O)C(C)=O"
  Label class: "F"
- Compound: "CCCCc1ccc(Cl)cc1"
  Label class: "F"
- Compound: "O=C[C@@H](O)[C@H](O)[C@H](O)CO"
  Label class: "F"
- Compound: "O=Cc1ccc(C(=O)O)cc1"
  Label class: "F"
- Compound: "O=C(O)COc1ccc2ccccc2c1"
  Label class: "F"
- Compound: "CC(=O)SCC(CC(=O)c1ccc(C)cc1)C(=O)O (stereo not given)"
  Label class: "F"
- Compound: "CCOC(=O)[C@H](CCc1ccccc1)N[C@H]1CS[C@H](c2cccs2)CN(CC(=O)O)C1=O"
  Label class: "F"
- Compound: "CN(C)CCC[C@@]1(c2ccc(F)cc2)OCc2cc(C#N)ccc21"
  Label class: "F"
- Compound: "NNC(=O)OCc1ccccc1"
  Label class: "F"
- Compound: "CCNC(=O)C(C)OC(=O)Nc1ccccc1 (stereo not given)"
  Label class: "F"
- Compound: "COC(=O)c1ccccc1Cl"
  Label class: "F"
- Compound: "CCCCCCCCCCCC(C)=O"
  Label class: "F"
- Compound: "CO/N=C(\\C(=O)O)c1csc(NC(=O)CCl)n1"
  Label class: "F"
- Compound: "CC(C)(O)CCCC1=CCC(C=O)CC1 (stereo not given)"
  Label class: "T"
- Compound: "Cc1cc(O)c(Cl)cc1C"
  Label class: "F"
- Compound: "Clc1ccc2c(c1)Nc1ccccc1S2"
  Label class: "F"
- Compound: "CC[N+](C)(CC)CC"
  Label class: "F"
- Compound: "COc1ccc2cc(CCC(C)=O)ccc2c1"
  Label class: "F"
- Compound: "CCCCCCCCCCCCCC(=O)OCC"
  Label class: "F"
- Compound: "CC(O)CCCCn1c(=O)c2c(ncn2C)n(C)c1=O (stereo not given)"
  Label class: "F"
- Compound: "C=CCCCCCCCCOC(C)=O"
  Label class: "F"
